test system: LOX IMVI melanoma; assay: NCI tumour cell line growth inhibition, 48 h

{"smi": "O=C(c1ccccc1)c1nn(-c2cccc(Cl)c2)c2nc3nc(-c4ccccc4)cc(=O)n3nc12", "readoutUnit": "µM", "cmp": ">", "TGI": 25}
{"smi": "COc1ccc(Cl)cc1NC(=O)O/N=C(\\Cl)C(C)C", "readoutUnit": "µM", "cmp": "=", "TGI": 5.06}
{"smi": "O=C(C=P(c1ccccc1)(c1ccccc1)c1ccccc1)c1ccccc1-c1ccccc1C(=O)C=P(c1ccccc1)(c1ccccc1)c1ccccc1", "readoutUnit": "µM", "cmp": "=", "TGI": 0.0716}
{"smi": "Cc1ccc2nc(CN(CCN(Cc3nc4ccc(C)cc4[nH]3)Cc3nc4ccc(C)cc4[nH]3)Cc3nc4ccc(C)cc4[nH]3)[nH]c2c1", "readoutUnit": "µM", "cmp": "=", "TGI": 3.03}
{"smi": "CCCCCCNC(=O)CCN(C(=O)O)S(=O)(=O)c1ccc(NC(=O)c2ccccc2)cc1", "readoutUnit": "µM", "cmp": ">", "TGI": 62.2}
